# Test system: 454973-116-R2-J3-PDC complex spheroid viability;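 further: spheroids exposed to drugs for seven days before measurement; percent viability relative to DMSO vehicle control wells taken as 100%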
# Run description: Anticancer human tumor 454973-116-R2-J3-PDC patient-derived pancreatic carcinoma cell line growth inhibition [POLQ]
# Condition parameters: second compound 10 µM; first compound 1 µM; active compounds read low
Reported metric: viability, T/C (%)
# number only, unit % dropped from output

Give viability, T/C for COc1ccc([C@@H](O)c2cc(-c3ncnc4cc(N5CCOCC5)ccc34)c(F)cc2Cl)nn1 + Cc1cccc(N(C)C(=O)C2C(O)CCN2c2nc(C)cc(C(F)(F)F)c2C#N)c1
84.5

Write down viability, T/C measured for item CCCS(=O)(=O)Nc1ccc(F)c(C(=O)c2c[nH]c3ncc(-c4ccc(Cl)cc4)cc23)c1F + COC1C(OC(N)=O)C(O)C(Oc2ccc3c(O)c(NC(=O)c4ccc(O)c(CC=C(C)C)c4)c(=O)oc3c2C)OC1(C)C
106

Using the record for C=CCn1c(=O)c2cnc(Nc3ccc(N4CCN(C)CC4)cc3)nc2n1-c1cccc(C(C)(C)O)n1 + Nc1ccc(C#CCN(C(=O)Cc2ncc(C(F)(F)F)cc2C(F)(F)F)c2ccc(F)cc2)nn1 , state its measured viability, T/C.
6.21

Tell me its viability, T/C given CCc1cc2c(N3CCc4c(cc(Cn5ccnc5)cc4-c4cn(C)nc4C(F)(F)F)C3=O)ccnc2c(OC)n1 + Nc1ccc(C#CCN(C(=O)Cc2ncc(C(F)(F)F)cc2C(F)(F)F)c2ccc(F)cc2)nn1 as the entry.
84.7

Give recorded viability, T/C. O=C(c1cc(Cc2n[nH]c(=O)c3ccccc23)ccc1F)N1CCN(C(=O)C2CC2)CC1 + Cc1cccc(N(C)C(=O)C2C(O)CCN2c2nc(C)cc(C(F)(F)F)c2C#N)c1
98.4
